EXPERIMENTAL SYSTEM: HTH-type quorum-sensing regulator RhlR (Pseudomonas aeruginosa (strain ATCC 15692 / PAO1 / 1C / PRS 101 / LMG12228)) (UniProt P54292)
Sequence (whole entry): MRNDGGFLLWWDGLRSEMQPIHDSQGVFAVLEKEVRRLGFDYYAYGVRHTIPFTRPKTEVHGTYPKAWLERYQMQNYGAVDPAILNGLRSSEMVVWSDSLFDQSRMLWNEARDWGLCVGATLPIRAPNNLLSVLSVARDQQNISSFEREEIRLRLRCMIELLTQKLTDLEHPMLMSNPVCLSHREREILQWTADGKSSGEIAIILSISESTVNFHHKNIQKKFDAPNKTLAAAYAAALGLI
EXPERIMENTAL DETAILS: Agonist activity at Pseudomonas aeruginosa RhlR expressed in Escherichia coli DH5alpha assessed as relative protein activity at 100 uM incubated for 1.5 hrs by luminescence reporter gene assay relative to control
Form field: Activity (one value per entry).
ENDPOINT NAME: Activity (%)

>>> df
                                    molecule  value_measured
 0               CCCCCC(=O)CCc1ccc(O)c(OC)c1               2
 1  CCCC(O)CC(=O)/C=C/c1cccc(O)c1 (stereo not given)               2
 2  CCCC(O)CC(=O)CCc1ccccc1 (stereo not given)               4
 3  CCCCCCCCCC(O)CC(=O)CCc1ccc(O)c(OC)c1 (stereo not given)               2
 4             CCCC[C@H](O)C#Cc1ccc(F)c(F)c1               2
 5        CCCC(O)C#Cc1ccc(F)c(F)c1 (racemic)               3
 6             CCC[C@@H](O)C#Cc1ccc(F)c(F)c1               3
 7  CCCCCCCC(O)CC(=O)CCc1ccc(O)c(OC)c1 (stereo not given)               2
 8      CCCCCC(O)C#Cc1ccc(F)c(F)c1 (racemic)               3
 9  CCCC(O)CC(=O)CCc1ccc(F)c(OC)c1 (stereo not given)               1
10  CCCC(O)CC(=O)/C=C/c1ccc(O)c(OC)c1 (stereo not given)               4
11  CCCCCC(O)CCc1ccc(O)c(OC)c1 (stereo not given)               2
12  CCCC(O)CC(=O)/C=C/c1ccc(N(C)C)cc1 (stereo not given)               2
13  CCCC(O)CC(=O)/C=C/c1ccc(F)cc1 (stereo not given)               1
14  CCCC(O)CC(=O)CCc1cccc(OC)c1 (stereo not given)               2
15            CCCC[C@@H](O)C#Cc1ccc(F)c(F)c1               3
16  CCCC(O)CC(=O)/C=C/c1cccc(OC)c1 (stereo not given)               2
17  CCCC(O)CC(=O)CCc1ccc(O)c(O)c1 (stereo not given)               2
18  CCCC(O)CC(=O)CCc1ccc(F)c(F)c1 (stereo not given)               1
19       CCCCC(O)C#Cc1ccc(F)c(F)c1 (racemic)               4
20                CCCCCC(=O)CCc1ccc(F)c(F)c1               4
21  CCCCCC(O)CCc1ccc(F)c(F)c1 (stereo not given)               5
22  CCCC(O)CC(=O)CCc1ccc(OC)cc1 (stereo not given)               2
23  CCCCCC(O)/C=C\c1ccc(O)c(OC)c1 (stereo not given)               3
24  CCCCCCCCC(O)CC(=O)CCc1ccc(O)c(OC)c1 (stereo not given)               2
25  CCCC(O)CC(=O)/C=C/c1ccc(OC)cc1 (stereo not given)               1
26           CCCCC[C@@H](O)C#Cc1ccc(F)c(F)c1               3
27  CCCC(O)CC(=O)/C=C/c1ccc(OC)c(OC)c1 (stereo not given)               1
28  CCCC(O)CC(=O)CCc1cccc(O)c1 (stereo not given)               2
29  CCCC(O)CC(=O)CCc1ccc(C)cc1 (stereo not given)               1
30  CCCC(O)CC(=O)CCc1ccc(Cl)cc1 (stereo not given)               2
31            CCCCCC(=O)/C=C/c1ccc(O)c(OC)c1               2
32  CCCC(O)CC(=O)CCc1ccc(F)cc1 (stereo not given)               2
33              CCC[C@H](O)C#Cc1ccc(F)c(F)c1               3
34  CCCCCC(O)/C=C/c1ccc(F)c(F)c1 (stereo not given)               5
35  CCCC(O)CC(=O)CCc1ccc(O)c(F)c1 (stereo not given)               1
36  CCCC(O)CC(=O)CCc1ccc(O)c(OCC)c1 (stereo not given)               1
37  CCCC(O)CC(=O)/C=C/c1ccc(O)cc1 (stereo not given)               1
38          CCCCC[C@@H](O)C#Cc1ccc(O)c(OC)c1               3
39             CCCCCC(=O)/C=C/c1ccc(F)c(F)c1               4
40  CCCC(O)CC(=O)/C=C/c1ccc(O)c(OCC)c1 (stereo not given)               1
41  CCCCC(O)CC(=O)CCc1ccc(O)c(OC)c1 (stereo not given)               2
42  CCCC(O)CC(=O)/C=C/c1ccccc1 (stereo not given)               4
43              CCCCCC(=O)C#Cc1ccc(O)c(OC)c1               3
44  CCCC(O)CC(=O)/C=C/c1ccc(O)c(F)c1 (stereo not given)               2
45  CCCC(O)CC(=O)CCc1ccc(C)c(C)c1 (stereo not given)               3
46  CCCC(O)CC(=O)CCc1ccc(N(C)C)cc1 (stereo not given)               1
47  CCCCCC(O)/C=C/c1ccc(O)c(OC)c1 (stereo not given)               2
48  CCCC(O)CC(=O)/C=C/c1ccc(F)c(F)c1 (stereo not given)               2
49  CCCC(O)CC(=O)CCc1ccc(OC)c(OC)c1 (stereo not given)               1
50  CCCC(O)CC(=O)CCc1ccc(O)cc1 (stereo not given)               3
51  CCCC(O)CC(=O)/C=C/c1ccc(C)c(C)c1 (stereo not given)               2
52  CCCC(O)CC(=O)/C=C/c1cc(F)cc(OC)c1 (stereo not given)               3
53  CCCC(O)CC(=O)/C=C/c1ccc(F)c(OC)c1 (stereo not given)               1

----------
EXPERIMENTAL SYSTEM: HTH-type quorum-sensing regulator RhlR (Pseudomonas aeruginosa (strain ATCC 15692 / PAO1 / 1C / PRS 101 / LMG12228))
EXPERIMENTAL DETAILS: Modulation of RhlR in Pseudomonas aeruginosa assessed as biofilm formation at 100 uM incubated for 24 hrs under static condition by crystal violet staining based assay relative to control
Each record here notes measured Activity.
ENDPOINT NAME: Activity (%)

>>> print(df.to_string())
                                    compound  value_measured
 0  CCCC(O)CC(=O)/C=C/c1ccc(O)c(OC)c1 (stereo unspecified)              65
 1                CCCCC(=O)C#Cc1ccc(F)c(F)c1              55
 2  CCCC(O)CC(=O)/C=C/c1ccc(F)c(F)c1 (stereo unspecified)              53
 3               CCCCCC(=O)C#Cc1ccc(F)c(F)c1              56
 4              CCC[C@H](O)C#Cc1ccc(F)c(F)c1              64
 5  CCCC(O)CC(=O)/C=C/c1ccc(O)c(O)c1 (stereo unspecified)              72
 6  CCCC(O)CC(=O)/C=C/c1cccc(OC)c1 (stereo unspecified)              73
 7             CCCCCC(=O)/C=C/c1ccc(F)c(F)c1              61
 8                          CCCC(=O)NC1CCCC1              69
 9             CCC[C@@H](O)C#Cc1ccc(F)c(F)c1              60
10        CCCC(O)C#Cc1ccc(F)c(F)c1 (racemic)              60
